TEST: chemical genetic growth profiling, strain panel (AID 1159580);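 note: tested at 20 µM; growth read once vehicle control cultures reached saturation at 30 °C; 1 = growth at the plate median or of vehicle wells; lower values mean less growth of the strain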
EXPERIMENTAL_CONTEXT: S. cerevisiae deletion strains, growth OD, locus YOR270C, strain vph1, hits give low values
Out of some 5,500 compounds screened, about 2,000 (36%) were called active. About 18% were inconclusive and are not listed. The list shows a part of the results.
ATTRIBUTE_MEASURED: normalized growth
Keep it simple and answer with nothing but the number.

Example entries begin here.
> print(dat)
                                   compound  observed.measurement
1  C=C1C2CCC3(C)C(c4ccoc4)OC(=O)CC13OC1CC(OC(C)=O)C(C)(C)C(CC(=O)OC)C12C (stereo not given)                 0.951
2                 Nc1cc(-c2ccncc2)c[nH]c1=O                 0.451
3  C=C1C(C2(C)C=CC(=O)C(C)(C)C2CC(=O)OC)CC[C@@]2(C)[C@H](c3ccoc3)OC(=O)C3OC132 (stereo not given in full)                  0.87

Incoming: Data request, read-out normalized growth, for Nc1ccncc1
Outgoing: 0.98

Incoming: Need normalized growth, item CO[C@]12C[C@@H](COC(=O)c3cncc(Br)c3)CN(C)[C@@H]1Cc1cn(C)c3cccc2c13
Outgoing: 1.01

Incoming: Fill in: normalized growth of C=C1C2CC[C@@]3(C)[C@H](c4ccoc4)OC(=O)C[C@]13O[C@H]1CC(O)C(C)(C)C(CC(=O)OC)[C@@]21C (stereo not given in full) is ___
Outgoing: 0.878

Incoming: If you can, please state the reported normalized growth value of C=C1C2=CC(=O)O[C@@H](c3ccoc3)[C@]2(C)CCC1[C@@]1(C)C=CC(=O)C(C)(C)[C@@H]1CC(=O)OC (stereo not given in full) .
Outgoing: 0.991

Incoming: normalized growth lookup needed for Cc1cc(O)c(C=O)c2c1C(=O)Oc1c(COC(=O)/C=C/C(=O)O)c(O)c(C(=O)O)c(C)c1O2 , thanks.
Outgoing: 0.503

Incoming: Quick check: normalized growth of O=c1cc(-c2ccc(O)cc2)oc2cc(O)ccc12 ?
Outgoing: 0.833

Incoming: Given O=c1cc(-c2ccccc2)oc2cc(O)c(O)cc12 , state its recorded normalized growth.
Outgoing: 0.773
